# TARGET SYSTEM: GDP-loaded HIS-KRAS(G12D, aa 1-169) (Homo sapiens, UniProt P01116, G12D)
# Construct: GDP-loaded HIS-KRAS(G12D, aa 1-169)
# Sequence (P01116 1-169 isoform P01116-2 G12D): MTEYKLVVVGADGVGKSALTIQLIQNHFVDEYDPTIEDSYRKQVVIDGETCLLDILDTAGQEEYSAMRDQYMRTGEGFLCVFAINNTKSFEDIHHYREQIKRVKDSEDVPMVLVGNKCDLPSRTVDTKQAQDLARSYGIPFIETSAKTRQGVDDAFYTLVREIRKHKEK
# PROTOCOL NOTES: SOS1 catalyzed nucleotide exchange assay (TR-FRET)
# EXPERIMENTAL PARAMETERS: 4 hours at 25° C.
OBSERVATION TYPE: IC50 (nM)
Give bare numbers, in nM.

// known answers, use as guide
INSERT INTO measurements (record_smiles, observation_type, readout_units, result) VALUES
  ('C#Cc1cccc2cc(O)cc(-c3c(F)cc4c(N5CC6CCC(C5)N6)nc(OCC5(CN6CC7(CCC7)C6)CC5)nc4c3F)c12', 'IC50', 'nM', 1.33),
  ('C#Cc1cccc2cc(O)cc(-c3c(F)cc4c(N5CC6CCC(C5)N6)nc(OCC5(CN6CC7(CC(O)C7)C6)CC5)nc4c3F)c12', 'IC50', 'nM', 0.975);

Kindly consider the entry below.
Please report the measured IC50 for `C#Cc1cccc2cc(O)cc(-c3c(F)cc4c(N5CC6CCC(C5)N6)nc(OCC5(CN6CCC7(CCOCC7)C6)CC5)nc4c3F)c12` 1.37

###

Answer each item with its documented pIC50.
# TARGET SYSTEM: GDP-loaded HIS-KRAS(G12D, aa 1-169) (Homo sapiens, UniProt P01116, G12D)
# Construct: GDP-loaded HIS-KRAS(G12D, aa 1-169)
# PROTOCOL NOTES: SOS1 catalyzed nucleotide exchange assay (TR-FRET)
# EXPERIMENTAL PARAMETERS: 4 hours at 25° C.
One number for each entry, as −log10 of the molar value.

INSERT INTO measurements (compound, target_system, observation_type, result) VALUES
  ('C#Cc1c(F)ccc2cc(O)cc(-c3c(Cl)cc4c(N5CC6CCC(C5)N6)nc(OCC5(CN6CC7CC6CO7)CC5)nc4c3F)c12 (single isomer, unassigned) [Compound 4B]', 'GDP-loaded HIS-KRAS(G12D, aa 1-169) (Homo sapiens, UniProt P01116, G12D)', 'pIC50', 9.51);

Would you mind listing pIC50 for each of the following compounds?
1. CCc1c(F)ccc2cc(O)cc(-c3c(C(F)(F)F)cc4c(N5CC6CCC(C5)N6)nc(OCC5(CN6C[C@@H]7C[C@H]6CO7)CC5)nc4c3F)c12
2. C#Cc1cccc2cc(O)cc(-c3c(F)cc4c(N5CC6CCC(C5)N6)nc(OCC5(CN6CC(C)(O)C6)CC5)nc4c3F)c12

1. 8.33
2. 8.46

###

# System: AsPC-1
# PROTOCOL NOTES: Cell growth inhibition assay, AsPC-1 (CellTiter-Glo)
# Type: cell-based
# EXPERIMENTAL PARAMETERS: Homo sapiens, ASPC1, 144 h; AsPC-1 cell viability, 6 days incubation
OBSERVATION TYPE: pIC50
Give bare numbers, as −log10 of the molar value.

Reference set, count: 6
INSERT INTO assay_data (compound, result) VALUES
  ('C#Cc1cccc2cc(O)cc(-c3c(F)cc4c(N5CC6CCC(C5)N6)nc(OCC5(CN6CCC7(CCO7)CC6)CC5)nc4c3F)c12 [Compound 11]', 6.67),
  ('C#Cc1cccc2cc(O)cc(-c3ccc4c(N5CC6CCC(C5)N6)nc(OCC5(CN6C7CCC6COC7)CC5)nc4c3F)c12 [Compound 10]', 7.24),
  ('C#Cc1cccc2cc(O)cc(-c3c(F)cc4c(N5CC6CCC(C5)N6)nc(OCC5(CN6CC7(CCC7)C6)CC5)nc4c3F)c12 [Compound 20]', 6.58),
  ('C#Cc1cccc2cc(O)cc(-c3c(F)cc4c(N5CC6CCC(C5)N6)nc(OCC5(CN6CCCC7(C6)CC7(F)F)CC5)nc4c3F)c12 (stereo not shown) [Compound 5]', 7.21),
  ('C#Cc1cccc2cc(O)cc(-c3c(F)cc4c(N5CC6CCC(C5)N6)nc(OCC5(CN6CCc7cccnc7C6)CC5)nc4c3F)c12 [Compound 15]', 7.01),
  ('C#Cc1cccc2cc(O)cc(-c3c(F)cc4c(N5CC6CCC(C5)N6)nc(OCC5(CN6CC7CCCC7C6)CC5)nc4c3F)c12 (stereo not shown) [Compound 25]', 7.02);

Turning now to a further record.
Note pIC50 for the compound shown: C#Cc1cccc2cc(O)cc(-c3c(F)cc4c(N5CC6CCC(C5)N6)nc(OCC5(CN6CC7(CCOC7)C6)CC5)nc4c3F)c12 [Compound 46] 6.31

###

# System: AsPC-1
# PROTOCOL NOTES: Cell growth inhibition assay, AsPC-1 (CellTiter-Glo)
# Type: cell-based
# EXPERIMENTAL PARAMETERS: Homo sapiens, ASPC1, 144 h; AsPC-1 cell viability, 6 days incubation
Field: IC50. Provide a value for each of the compounds that follow.
One number for each entry, in µM.

Reference set (5 entries):
INSERT INTO results (compound, target_system, observation_type, result) VALUES
  ('C#Cc1cccc2cc(O)cc(-c3c(F)cc4c(N5CC6CCC(C5)N6)nc(OCC5(CN6Cc7cccnc7C6)CC5)nc4c3F)c12', 'AsPC-1', 'IC50', 0.158),
  ('C#Cc1cccc2cc(O)cc(-c3c(F)cc4c(N5CC6CCC(C5)N6)nc(OCC5(CN6Cc7ccccc7C6)CC5)nc4c3F)c12', 'AsPC-1', 'IC50', 0.091),
  ('C#Cc1c(F)ccc2cc(O)cc(-c3ccc4c(N5CC6CCC(C5)N6)nc(OCC5(CN6C7CCC6COC7)CC5)nc4c3F)c12', 'AsPC-1', 'IC50', 0.0722),
  ('C#Cc1cccc2cc(O)cc(-c3c(F)cc4c(N5CC6CCC(C5)N6)nc(OCC5(CN6C7CCC6CC(=O)C7)CC5)nc4c3F)c12', 'AsPC-1', 'IC50', 0.066),
  ('C#Cc1cccc2cc(O)cc(-c3c(F)cc4c(N5CC6CCC(C5)N6)nc(OCC5(CN6CC7(CCO7)C6)CC5)nc4c3F)c12', 'AsPC-1', 'IC50', 0.182);

Below is a list of compounds. For each, state its recorded IC50.
1. C#Cc1cccc2cc(O)cc(-c3c(F)cc4c(N5CC6CCC(C5)N6)nc(OCC5(CN6C[C@H]7C[C@@H]6CO7)CC5)nc4c3F)c12
2. C#Cc1cccc2cc(O)cc(-c3c(F)cc4c(N5CC6CCC(C5)N6)nc(OCC5(CN6CC7(CCOCC7)C6)CC5)nc4c3F)c12
3. C#Cc1cccc2cc(O)cc(-c3c(F)cc4c(N5CC6CCC(C5)N6)nc(OCC5(CN6CC(C)(OC)C6)CC5)nc4c3F)c12

1. 0.0774
2. 0.413
3. 0.533

Lab note: each compound below needs its IC50 filled in.
1. C#Cc1cccc2cc(O)cc(-c3c(F)cc4c(N5CC6CCC(C5)N6)nc(OCC5(CN6CCC7(CCCO7)C6)CC5)nc4c3F)c12 (stereo not shown)
2. C#Cc1cccc2cc(O)cc(-c3c(F)cc4c(N5CC6CCC(C5)N6)nc(OCC5(CN6CCC7(C6)CC7(F)F)CC5)nc4c3F)c12 (stereo not shown)
3. C#Cc1cccc2cc(O)cc(-c3c(F)cc4c(N5CC6CCC(C5)N6)nc(OCC5(CN6CC(OC)C6)CC5)nc4c3F)c12
4. C#Cc1cccc2cc(O)cc(-c3c(F)cc4c(N5CC6CCC(C5)N6)nc(OCC5(CN6CC7(CCCCO7)C6)CC5)nc4c3F)c12
5. C#Cc1cccc2cc(O)cc(-c3ccc4c(N5CC6CCC(C5)N6)nc(OCC5(CN6CC7CC6CO7)CC5)nc4c3F)c12 (stereo not shown)
6. C#Cc1cccc2cc(O)cc(-c3c(F)cc4c(N5CC6CCC(C5)N6)nc(OCC5(CN6CCc7sccc7C6)CC5)nc4c3F)c12

[0.227, 0.0265, 0.334, 0.315, 0.138, 0.093]

For each listed entry, give its IC50.
1. C#Cc1cccc2cc(O)cc(-c3ccc4c(N5CC6CCC(C5)N6)nc(OCC5(CN6CC7CCC(C6)O7)CC5)nc4c3F)c12
2. C#Cc1cccc2cc(O)cc(-c3c(F)cc4c(N5CC6CCC(C5)N6)nc(OCC5(CN6CCC7(CCOC7)C6)CC5)nc4c3F)c12 (stereo not shown)

1. 0.0553
2. 0.653

For each entry beneath this line, provide reported IC50.
1. C#Cc1cccc2cc(O)cc(-c3c(F)cc4c(N5CC6CCC(C5)N6)nc(OCC5(CN6CCOCC67CCC7)CC5)nc4c3F)c12
2. C#Cc1cccc2cc(O)cc(-c3c(F)cc4c(N5CC6CCC(C5)N6)nc(OCC5(CN6CCC7(CC6)COC7)CC5)nc4c3F)c12
3. C#Cc1cccc2cc(O)cc(-c3c(F)cc4c(N5CC6CCC(C5)N6)nc(OCC5(CN6CC7COCC7C6)CC5)nc4c3F)c12 (stereo not shown)
4. C#Cc1cccc2cc(O)cc(-c3c(F)cc4c(N5CC6CCC(C5)N6)nc(OCC5(CN6C[C@@H]7OCCO[C@@H]7C6)CC5)nc4c3F)c12

0.0596
0.0832
0.036
0.07
